Where these numbers come from: paper PMC7156458

target: Aβ42 (Homo sapiens); test: Th-T (thioflavin-T) assay of Aβ42 aggregation; format: biochemical; conditions: time-course reading M109; Supplementary Fig. 47 source data
Reported values of Th-T fluorescence, mean of three wells for individual entries

| Compound | Th-T fluorescence, mean of three wells |
| --- | --- |
| C=C1CCC2C(C)(CCC=C(C)C)C(O)CCC2(C)C1Cc1c(O)c(C)c(C)oc1=O (stereo not shown) [Compound 4] | 2.779 |
| C=C1CCC2C(C)(CC(=O)C=C(C)C)C(O)CCC2(C)C1Cc1c(O)c(C)c(C)oc1=O (stereo not shown) [Compound 7] | 3.4898 |
| C=C1CC[C@@H]2[C@](C)(CC[C@H]3O[C@H](C=C(C)C)C[C@@]23C)[C@@H]1Cc1c(OC)oc(CO)c(C)c1=O [Compound 20] | 4.227 |
| C=C1CC[C@H]2[C@]3(C)C[C@H](C=C(C)C)O[C@H]3CC[C@]2(C)[C@@H]1Cc1c(O)c(C)c(C)oc1=O [Compound 6, subglutinol B] | 3.057 |
| C=C1CCC2C(C)(CCC=C(C)C)C(O)CCC2(C)C1Cc1c(OC)oc(C)c(C)c1=O (stereo not shown) [Compound 15, viridoxin A hydrolysate] | 3.3293 |
| C=C1CC[C@H]2[C@]3(C)C[C@@H](C=C(C)C)O[C@H]3CC[C@]2(C)[C@@H]1Cc1c(O)c(C)c(C)oc1=O [Compound 5, subglutinol A] | 2.6837 |
| C=C1CCC2C(C)(CCC=C(C)C)C(O)CCC2(C)C1Cc1c(OC)oc(CO)c(C)c1=O (stereo not shown) [Compound 12] | 2.047 |
| C=C1CC[C@H]2[C@]3(C)C[C@H](C=C(C)C)O[C@H]3CC[C@]2(C)[C@@H]1Cc1c(OC)oc(CO)c(C)c1=O [Compound 18] | 3.821 |
| C=C1CCC2C(C)(CCC=C(C)C)C(O)CCC2(C)C1Cc1c(OC)oc(CO)c(C(=O)OC)c1=O (stereo not shown) [Compound 13] | 1.039 |
| C=C1CCC2C(C)(CCC=C(C)C)C(=O)CCC2(C)C1Cc1c(O)c(C)c(C)oc1=O (stereo not shown) [Compound 8] | 2.203 |

---

target: Aβ42 (Homo sapiens, UniProt P05067); experiment: Th-T (thioflavin-T) assay of Aβ42 aggregation; type: biochemical; details: column suffix _50; reading M87
Sequence (P05067 672-713): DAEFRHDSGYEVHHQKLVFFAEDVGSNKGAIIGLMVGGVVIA
Measured Parameter: Fig. 7a Th-T reading, mean of three wells

| Compound | Value |
| --- | --- |
| C=C1CCC2C(C)(CCC=C(C)C)C(O)CCC2(C)C1Cc1c(OC)oc(CO)c(C)c1=O (centres unmarked) | 1.399 |
| C=C1CC[C@@H]2[C@](C)(CC[C@H]3O[C@H](C=C(C)C)C[C@@]23C)[C@@H]1Cc1c(OC)oc(CO)c(C(=O)OC)c1=O | 0.401 |
| C=C1CCC2C(C)(CCC=C(C)C)C(O)CCC2(C)C1Cc1c(OC)oc(C)c(C(=O)OC)c1=O (centres unmarked) | 1.943 |
| C=C1CCC2C(C)(CCC=C(C)C)C(O)CCC2(C)C1Cc1c(OC)oc(CO)c(C(=O)OC)c1=O (centres unmarked) | 0.4718 |
| C=C1CC[C@@H]2[C@](C)(CC[C@H]3O[C@H](C=C(C)C)C[C@@]23C)[C@@H]1Cc1c(OC)oc(CO)c(C)c1=O | 2.082 |
